experiment: NCI Yeast Anticancer Drug Screen. Data for the mec2-1 strain (AID 157); settings: S. cerevisiae mec2-1 strain, at 50.0 µM, stronger effect = higher value
The panel holds about 79,000 compounds, 15% with a hit somewhere; the sample as a whole holds those more often.
property: growth inhibition (%)
Numeric answer only, unit % assumed.

A selection of reference data follows.
- compound: "CCOC(=O)c1cn(CC)c2cc(-n3cccc3)ccc2c1=O"
  property: "growth inhibition"
  result value: 20.6
- compound: "CCCCCCCCCCNC(=O)C[n+]1cccc(C(=O)Nc2ccccc2)c1"
  property: "growth inhibition"
  result value: 99.8
- compound: "Cc1cc(N=[N+]=[N-])c2cc(C3CCCCC3)ccc2n1"
  property: "growth inhibition"
  result value: 78.8
- compound: "Cc1ccnc2ccc3ccccc3c12"
  property: "growth inhibition"
  result value: -1
- compound: "C[N+]1(C)CCCC(OCCCCCCCCCCCCCCOC2CCC[N+](C)(C)C2)C1 (stereo unspecified)"
  property: "growth inhibition"
  result value: 80.5

Alright, here's another compound for you.
Sample c1ccc(-n2c3ccccc3c3ccccc32)cc1 — what was its growth inhibition? 82.2

----------
test: NCI Yeast Anticancer Drug Screen. Data for the mlh1 rad18 strain (AID 175); conditions: S. cerevisiae mlh1 rad18 strain growth inhibition; at 50.0 µM; stronger effect = higher value
This is part of a sample that, as a whole, favours compounds with a hit. Of some 79,000 tested, about 15% had one in any assay.
property: growth inhibition (%)
Value expressed in %; do not type the unit.

Guide cases for growth inhibition, answers given:
- compound: "Nc1c(NCc2ccccc2)ccc2ncccc12"
  growth inhibition / %: 98.1
- compound: "C=C1C(=O)O[C@@H]2C[C@@]3(C)CCC[C@H](C)C3=C[C@H]12 (tested in a mixture with another compound)"
  growth inhibition / %: 91.5

Given O=C(CNc1ccc(Cl)cc1)Nn1c(-c2ccccc2)nc2ccccc2c1=O , state its recorded growth inhibition. 81.3

Note, next up: CN(C)/N=C1\CC(c2ccccc2)C(C#N)(C#N)C1(C#N)C#N (stereo not drawn) 91.5

----------
Assay: NCI Yeast Anticancer Drug Screen. Data for the mlh1 rad18 strain (AID 175)
Details: S. cerevisiae mlh1 rad18 strain growth inhibition; at 50.0 µM
Description: Growth inhibition of yeast strains with defined genetic alterations is measured as a screen for potential anti-cancer activity. Selected strains with alterations in DNA damage repair or cell cycle control were exposed to compounds and growth inhibition was measured relative to vehicle treated controls. The strain used in this assay is mlh1 rad18
The panel holds about 79,000 compounds, 15% with a hit somewhere; the sample as a whole holds those more often. Active and inactive are the calls of the source. No stated cut-off is given here; in the data, active means growth inhibition above about 70%; inactive means the rest.
Outcomes you can answer with include only these: true = active, false = inactive

Illustrative cases are given below, each with its answer.
- molecule: "CC(=O)Nc1ccc(-c2nnc(SCC(=O)Nc3ccc(Cl)cc3Cl)o2)cc1"
  answer label: "true"
- molecule: "COc1cccc2c1C(=O)c1c(O)c(CCl)cc(O)c1C2=O"
  answer label: "true"
- molecule: "C[CH2][Sn]([CH2]C)([O]C(=O)c1ccccc1OC)[O][Sn]([CH2]C)([CH2]C)[O]C(=O)c1ccccc1OC"
  answer label: "true"

Call for entry O=C(OCc1ccccc1CN1CCOCC1)c1ccc(Br)cc1 : true

And what about the molecule CC12CCC3c4cc(O)ccc4CCC3C1CCC2O (configuration not stated) ? false
